Consider the following molecules; for each one, report its Ki.
molecular target: 5-hydroxytryptamine receptor 6 (Homo sapiens, UniProt P50406); assay: Inhibition of human recombinant 5-HT6 receptor expressed in human HEK293 cells assessed as inhibition of serotonin-induced cAMP accumulation; assay type: functional, cell-based; conditions: read-out: pKi (converted)
Sequence (P50406 whole entry): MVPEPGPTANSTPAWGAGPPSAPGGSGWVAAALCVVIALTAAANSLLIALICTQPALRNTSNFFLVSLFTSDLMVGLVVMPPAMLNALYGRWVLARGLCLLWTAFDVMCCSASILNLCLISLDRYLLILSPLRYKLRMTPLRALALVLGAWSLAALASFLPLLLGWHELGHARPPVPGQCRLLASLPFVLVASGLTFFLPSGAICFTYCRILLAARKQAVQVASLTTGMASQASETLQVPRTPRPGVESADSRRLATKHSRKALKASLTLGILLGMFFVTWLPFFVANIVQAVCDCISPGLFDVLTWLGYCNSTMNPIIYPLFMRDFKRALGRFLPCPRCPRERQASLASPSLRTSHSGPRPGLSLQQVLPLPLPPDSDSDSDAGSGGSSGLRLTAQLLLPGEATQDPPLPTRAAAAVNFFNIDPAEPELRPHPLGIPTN
For clarity, give the value followed by its unit.

Prompt: Which Ki is reported for this molecule? CNc1nn2c(NCCN(C)C)cc(C)nc2c1S(=O)(=O)c1ccccc1
Response: 69.2 nM

Prompt: Which Ki is reported for this molecule? CNc1nn2c(N)cc(C)nc2c1S(=O)(=O)c1ccccc1
Response: 0.302 nM

Prompt: Which Ki is reported for this molecule? CNc1nn2c(C)cc(C)nc2c1S(=O)(=O)c1ccccc1
Response: 0.263 nM

Prompt: Which Ki is reported for this molecule? CNc1nn2c(C)c(CN)c(C)nc2c1S(=O)(=O)c1cccc(Cl)c1
Response: 0.55 nM

Prompt: Which Ki is reported for this molecule? CNc1nn2c(C)c(CCN(C)C)c(C)nc2c1S(=O)(=O)c1ccccc1
Response: 2.09 nM

Prompt: Which Ki is reported for this molecule? CNc1nn2c(N)c(Cl)c(C)nc2c1S(=O)(=O)c1cccc(Cl)c1
Response: 18.6 nM

Prompt: Which Ki is reported for this molecule? CNc1nn2c(C)c(CN)c(C)nc2c1S(=O)(=O)c1ccccc1
Response: 0.646 nM

Prompt: Which Ki is reported for this molecule? CNc1nn2c(NC)cc(C)nc2c1S(=O)(=O)c1ccccc1
Response: 0.575 nM

Prompt: Which Ki is reported for this molecule? CNc1nn2c(C)cc(CN)nc2c1S(=O)(=O)c1ccccc1
Response: 0.977 nM

Prompt: Which Ki is reported for this molecule? CNc1nn2c(N3CCOCC3)cc(C)nc2c1S(=O)(=O)c1ccccc1
Response: 16.6 nM

Prompt: Which Ki is reported for this molecule? CNc1nn2c(C)c(CN(C)C)c(C)nc2c1S(=O)(=O)c1ccccc1
Response: 0.708 nM

###

target: 5-hydroxytryptamine receptor 6 (Homo sapiens); test: Inhibition of human recombinant 5-HT6 receptor expressed in human HEK293 cells assessed as inhibition of serotonin-induced cAMP accumulation; format: functional, cell-based; details: read-out: pKi (converted)
Consider the following compounds; for each one, report its Ki.
The response must be a number in nM with no trailing unit.

Prompt: Which Ki is reported for this compound? CNc1nn2c(C)c(CN(C)C)c(C)nc2c1S(=O)(=O)c1cccc(Cl)c1
Response: 0.417

Prompt: Which Ki is reported for this compound? CNc1nn2c(C)c(N(C)C)c(C)nc2c1S(=O)(=O)c1ccccc1
Response: 0.209

Prompt: Which Ki is reported for this compound? CNc1nn2c(N(C)C)cc(C)nc2c1S(=O)(=O)c1ccccc1
Response: 0.347

Prompt: Which Ki is reported for this compound? CNc1nn2c(C)c(CN(C)C)c(C)nc2c1S(=O)(=O)c1cccc(F)c1
Response: 0.891

Prompt: Which Ki is reported for this compound? CNc1nn2c(N(C)CCN(C)C)cc(C)nc2c1S(=O)(=O)c1ccccc1
Response: 22.4

###

target: 5-hydroxytryptamine receptor 6 (Homo sapiens); assay: Partial agonist activity at human recombinant 5-HT6 receptor expressed in human HEK293 cells assessed as inhibition of serotonin-induced cAMP accumulation; type: functional, cell-based
Consider the following compounds; for each one, report its Ki.
The response must be a number in nM with no trailing unit.

Prompt: Which Ki is reported for this compound? CNc1nn2c(CCN)cc(C)nc2c1S(=O)(=O)c1ccccc1
Response: 3.09

Prompt: Which Ki is reported for this compound? CNc1nn2c(CCN(C)C)cc(C)nc2c1S(=O)(=O)c1ccccc1
Response: 33.9

Reference source for all entries: ChEMBL document CHEMBL1921770
